assay: solvent given as SMILES; conditions: in ClC(Cl)Cl
Binning rule for recorded emission maximum: 0: < 500 nm; 1: ≥ 500 nm and < 600 nm; 2: ≥ 600 nm

smiles_text=O=Cc1ccc(Oc2ccc3c4c(cccc24)C(=O)N(CCO)C3=O)cc1 answer_label=0
smiles_text=COc1ccc(N(c2ccc(OC)cc2)c2ccc(-c3ccc(C=C(C#N)C#N)s3)cc2)cc1 answer_label=2
smiles_text=C(#Cc1ccc(C#Cc2ccccc2)cc1)c1ccccc1 answer_label=0
smiles_text=CC(=O)c1c2c(cc3c(N(C)C)cccc13)CCC2 answer_label=1

# input Which class is correct for the following molecule? CCNc1cc2c(cc1C)C(c1ccccc1C(=O)O)=C1CCCC(/C=C/C3=[N+](C)c4ccc5ccccc5c4C3(C)C)=C1O2
# output 2

# input One more molecule: COc1ccc(C2=[N+]3C(=Nc4c(-c5ccccc5)cc(-c5ccc(OC)cc5)n4[B-]3(F)F)C(c3ccccc3)=C2)cc1
# output 2

# input One more molecule: CCC1(CC)c2cc(B(c3c(C)cc(C)cc3C)c3c(C)cc(C)cc3C)ccc2-c2ccc(N(c3ccccc3)c3ccccc3)cc21
# output 0

# input One more molecule: C/C(=N\Nc1ccc(C#N)cc1)c1ccccn1
# output 0

# input One more molecule: C[N+]1=C(/C=C/C2=C3Oc4c(cc5c6c4CCCN6CCC5)C(c4ccccc4C(=O)O)=C3CCC2)C(C)(C)c2ccccc21
# output 2

# input One more molecule: F[B-]1(F)n2c(nc(Br)c2Br)-c2cccc[n+]21
# output 0

# input One more molecule: CCCCCCn1c2cc(/C=C/c3ccccc3)ccc2c2ccc(/C=C/c3ccccc3)cc21
# output 0

###

assay: solvent given as SMILES; conditions: in Cc1ccccc1
Answer each item with its documented emission maximum.
Numbers only, in nm.

Examples from the recorded data:
compound=N#C/C(=C\c1cc(/C=C(\C#N)c2ccc(C(F)(F)F)cc2)c(-c2ccc(N(c3ccccc3)c3ccccc3)cc2)cc1-c1ccc(N(c2ccccc2)c2ccccc2)cc1)c1ccc(C(F)(F)F)cc1 recorded_measurement=515
compound=COc1ccc(-c2csc(/C(C#N)=N\Nc3ccc(C#N)cc3)n2)cc1 recorded_measurement=494

Now take the following compound into account.
# input State the recorded emission maximum for this entry: O=P1(c2ccccc2)C(c2cc(C(F)(F)F)cc(C(F)(F)F)c2)=Cc2c3ccc4cccc5ccc(c6cc(-c7ccccc7)n1c26)c3c45 (stereo not drawn)
# output 514

###

assay: solvent given as SMILES; conditions: in CCOC(C)=O
Could you label it Y if measured emission maximum is 500 nm or higher, and N otherwise?

compound=CCN(CC)c1ccc2c(C#N)c(/C=C(\C#N)c3nc4ccccc4s3)c(=O)oc2c1 answer_label=Y
compound=Cc1ccc(C2=C3C=CC(/C=C/c4ccccc4)=[N+]3[B-](F)(F)n3c(/C=C/c4ccccc4)ccc32)cc1 answer_label=Y
compound=O=c1oc2ccccc2cc1-c1ccc(-c2cc3ccccc3oc2=O)cc1 answer_label=N
compound=CCn1c2ccccc2c2cc(-c3cc(-c4ccc5c(c4)c4ccccc4n5CC)nc(C#N)n3)ccc21 answer_label=N
compound=Cc1cc2ccccc2c2c1c1ccccc1n2-c1ccc(N(c2ccccc2)c2ccccc2)cc1 answer_label=N
compound=CN(C)c1ccc(C#Cc2ccc3ccc4c(C#Cc5ccc(N(C)C)cc5)ccc5ccc2c3c54)cc1 answer_label=Y

# input Is reported emission maximum greater than or equal to 500 nm here: CC1=NN(c2ccccc2)C(=O)/C1=C/c1cn(-c2ccccc2)nc1-c1ccccc1
# output N

# input One more compound: CCn1ncc2c3c(C#N)c4c5ccccc5n(CC)c4nc3ccc21
# output N

# input One more compound: O=Cc1cc2c(cc3ccc4cccc5ccc2c3c45)[nH]1
# output N

# input One more compound: CN(C)c1ccc(-c2cc(-c3ccc(C#N)cc3)nn2C)cc1
# output N
